Where do these numbers come from? They come from PubChem BioAssay AID977605.

Record form. Attribute: activation. Fill in for each entry.
EXPERIMENT_DESCRIPTION: endothelial E-selectin upregulation by compounds – imaging, HUVEC, cherry-picked samples, dose response (AID 977605);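 note: signal is the share of imaged cells scored positive for E-selectin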
PARTICULARS: HUVEC E-selectin immunostaining, at 19.5 µM (top of the series), percent of TNF-alpha response over vehicle
Numeric answer only, unit % assumed.

Briefly, activation measured for Cc1ccc(NCC(=O)N2CCN(S(=O)(=O)c3ccccc3)CC2)cc1F : 0.075

Noted for COc1ccc(C(=O)N2CC(c3ccccc3)CC2=O)cc1 (stereo unspecified) : its activation reads -0.124

# activation of C[C@H](CO)N1C[C@H](C)[C@H](CN(C)Cc2ccc(Cl)c(Cl)c2)Oc2ccc(NS(=O)(=O)c3cccs3)cc2C1=O = 0.328

Memo: C[C@@H]1CN([C@H](C)CO)C(=O)c2cccc(NS(C)(=O)=O)c2O[C@@H]1CN(C)Cc1ccncc1 , reported activation: -0.083

Sample CC(C)(CN1CCCC1)NS(=O)(=O)c1ccc(Cl)cc1 ; activation observed: -0.279

Record C[C@@H]1CN([C@@H](C)CO)C(=O)c2cc(NC(=O)NC3CCCCC3)ccc2O[C@@H]1CN(C)S(=O)(=O)c1ccc(Cl)cc1 , field activation: -0.037

Note to self: activation recorded for CC(C)NC(=O)Nc1ccc2c(c1)CC(=O)N([C@@H](C)CO)C[C@H](C)[C@H](CN(C)Cc1ccc(C(=O)O)cc1)O2 was 0.025

Sure, the documented activation for COc1ccc(NC(=O)Nc2ccc3c(c2)C(=O)N([C@H](C)CO)C[C@H](C)[C@@H](CN(C)Cc2ccncc2)O3)cc1 is 4.31

Item: C[C@H](CO)N1C[C@H](C)[C@H](CN(C)S(=O)(=O)c2ccc(Cl)cc2)Oc2c(NC(=O)C3CCCCC3)cccc2C1=O | activation: 0.576

GET /value?item= C[C@@H]1CN([C@@H](C)CO)C(=O)c2cc(NC(=O)Nc3ccc(C(F)(F)F)cc3)ccc2O[C@@H]1CN(C)Cc1ccc(Oc2ccccc2)cc1 &field=activation returns -0.275

The molecule identified as C[C@H]1CN([C@@H](C)CO)C(=O)c2cccc(NC(=O)c3ccncc3)c2O[C@@H]1CN(C)Cc1ccc(C(=O)Nc2ccccc2N)cc1 registered its activation at 0.014

Looking up C[C@@H]1CN([C@H](C)CO)C(=O)c2cc(NS(=O)(=O)c3ccccc3)ccc2O[C@H]1CN(C)C(=O)NC1CCCCC1 , I found its activation recorded as 0.289

C[C@@H]1CN([C@H](C)CO)C(=O)c2cccc(NC(=O)c3ccc(-c4nccs4)cc3)c2O[C@H]1CN(C)Cc1ccc(Oc2ccccc2)cc1 yielded activation of 9.5

Query COc1ccc(-c2nc(NC(=O)Cn3c(=O)oc4ccccc43)sc2C)cc1 yields activation of 1.37

response.value for COc1ccc(S(=O)(=O)Nc2ccc3c(c2)C(=O)N([C@@H](C)CO)C[C@@H](C)[C@@H](CN(C)C(=O)Nc2cccc4ccccc24)O3)cc1 (field: activation) = -0.103

// recorded activation for CCOC(=O)c1cccc(NC(=O)Nc2ccc3c(c2)C(=O)OC3)c1 : 0.013

###

Assignment: determine reported activation for the given compounds.
EXPERIMENT_DESCRIPTION: endothelial E-selectin upregulation by compounds – imaging, HUVEC, cherry-picked samples, dose response (AID 977605);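 note: signal is the share of imaged cells scored positive for E-selectin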
PARTICULARS: HUVEC E-selectin immunostaining, at 19.5 µM (top of the series), percent of TNF-alpha response over vehicle
The reply should contain only the number, in %.

// field: activation; key: COC(=O)C[C@H]1CC[C@H]2[C@@H](COc3ccc(NC(=O)C4CC4)cc3C(=O)N2C)O1 ; value = 3.57

Kindly note the recorded activation for COc1ccc(NC(=O)N(C)C[C@H]2Oc3c(NS(=O)(=O)c4cn(C)cn4)cccc3C(=O)N([C@@H](C)CO)C[C@@H]2C)cc1 , which is 0.542

The compound listed as COc1cc(OC)cc(N(C(=O)c2snc(C(N)=O)c2N)C(C(=O)NCC2CCCO2)c2ccc(C)o2)c1 (stereo not drawn) has a reported activation of -0.112

Consider C[C@H]1CN([C@@H](C)CO)C(=O)c2cccc(NS(C)(=O)=O)c2O[C@@H]1CN(C)Cc1ccncc1 . Its measured activation is -0.178

// field: activation; key: Cc1ccc(CNS(=O)(=O)c2ccc(C(F)(F)F)cc2)n1C ; value = -0.139

The reported activation of the compound CCNC(=O)CC1C(=O)N(c2ccc(OC)cc2)C(=O)N1CCOC (stereo not drawn) was -0.131

Entry under test: CCn1c(CCC(=O)O)nc2cc(S(=O)(=O)N3CCOCC3)ccc21 . Its activation was -0.184

activation recorded for this compound, COc1ccc(S(=O)(=O)Nc2cccc3c2O[C@H](CN(C)C(=O)Nc2c(C)noc2C)[C@H](C)CN([C@H](C)CO)C3=O)cc1 , is -0.109

Notebook: C[C@@H]1CN([C@H](C)CO)C(=O)c2cccc(NC(=O)Nc3ccc(F)cc3)c2O[C@H]1CN(C)C(=O)NC1CCCCC1 , activation read as 0.496

Just so you know, measured activation for C[C@@H]1CN([C@@H](C)CO)C(=O)c2cc(NS(=O)(=O)c3cccs3)ccc2O[C@@H]1CN(C)C(=O)Nc1ccc2c(c1)OCO2 came out at -0.086

So, COC(=O)c1cc(S(=O)(=O)NCC2CCN(CCc3cccs3)CC2)c[nH]1 ? Its activation was 0.021

The compound listed as Cc1ccccc1N(CC(=O)NC1CCCCC1)C(=O)CNC(=O)c1cccs1 has a reported activation of 0.744

The value of activation measured for the compound Cc1ccc(OCc2nc(-c3cccnc3)no2)cc1C turned out to be -0.108

Entry COc1ccccc1CN1CC(C(=O)N(C)Cc2[nH]c3ccccc3c2C)CCC1=O (stereo not drawn) , activation reported as 0.071

Kindly note the recorded activation for COc1ccc(OCCN2CCN(S(=O)(=O)c3ccccc3C(F)(F)F)CC2)cc1 , which is -0.023

According to the records, this compound Cc1noc(C)c1S(=O)(=O)Nc1ccc2c(c1)C(=O)N([C@H](C)CO)C[C@@H](C)[C@@H](CN(C)Cc1ccc3c(c1)OCO3)O2 displays activation of -0.086

activation in this record for COc1ccc(OCC(O)CNC(=O)c2ccccc2)cc1 (stereo not drawn) : 4.38

Recorded activation (compound C[C@@H]1CN([C@@H](C)CO)C(=O)Cc2cc(NC(=O)Cn3cnnn3)ccc2O[C@H]1CN(C)C(=O)Nc1ccc(F)cc1 ): 0.031

// recorded activation for CCCCCCOc1ccc(C(CC(N)=O)C(=O)O)cc1 (stereo not drawn) : -0.269

Field activation (entry Cc1noc(C)c1S(=O)(=O)Nc1ccc2c(c1)CC(=O)N([C@H](C)CO)C[C@@H](C)[C@H](CN(C)C(=O)Nc1cccc3ccccc13)O2 ) reads -0.155

Form field activation, entry Cc1noc(C)c1NC(=O)N(C)C[C@@H]1Oc2ccc(NS(=O)(=O)c3cccs3)cc2CC(=O)N([C@H](C)CO)C[C@H]1C : -0.165

The compound listed as O=C(c1cc(COc2ccc(F)cc2Cl)on1)N(Cc1ccncc1)CC1CCCO1 (stereo not drawn) shows activation equal to -0.279

Documented activation of Cc1ccccc1CCN1CCCC(CN(C)C(=O)c2ccc3ncccc3c2)C1 (stereo not drawn) : 36.6

According to the records, this compound CC(C)NC(=O)Nc1ccc2c(c1)C(=O)N(C)[C@@H]1CC[C@@H](CC(=O)NCC(F)(F)F)O[C@@H]1CO2 displays activation of 0.147

Consider CC(C)CC#Cc1ccc2c(c1)O[C@H](CN(C)C(=O)c1ccccc1)[C@H](C)CN([C@@H](C)CO)S2(=O)=O . Its measured activation is -0.183

Record COc1ccc(S(=O)(=O)Nc2ccc3c(c2)CC(=O)N([C@H](C)CO)C[C@@H](C)[C@H](CN(C)C(=O)NC2CCCCC2)O3)cc1 , field activation: -0.114

# activation (compound: C[C@H]1CN([C@@H](C)CO)C(=O)c2cccc(NC(=O)Nc3ccc(F)cc3)c2O[C@H]1CN(C)Cc1ccncc1 ) is 0.058

Record summary for C[C@H](CO)N1C[C@H](C)[C@H](CN(C)Cc2ccc(C(F)(F)F)cc2)Oc2ccc(NC(=O)Cc3cn(C)c4ccccc34)cc2CC1=O : reported activation = 0.156

Kindly note the recorded activation for COc1ccc(NC(=O)N(C)C[C@@H]2Oc3ccc(NC(=O)c4ccncc4)cc3CC(=O)N([C@@H](C)CO)C[C@H]2C)cc1 , which is -0.088

Short answer for COc1ccc(N2CCN(C(=O)c3cccc(NC4=NC5CS(=O)(=O)CC5S4)c3)CC2)cc1 (stereo not drawn) : activation was -0.136

The value of activation measured for the compound C[C@@H]1CN([C@H](C)CO)C(=O)Cc2cc(NC(=O)Nc3ccc(F)cc3)ccc2O[C@H]1CN(C)S(=O)(=O)c1ccc(Cl)cc1 turned out to be 0.054

The compound listed as CC(C)NC(=O)Nc1cccc2c1O[C@H](CN(C)Cc1ccc(Cl)c(Cl)c1)[C@H](C)CN([C@@H](C)CO)C2=O has a reported activation of -0.02

So for C[C@@H]1CN([C@@H](C)CO)C(=O)c2cccc(NC(=O)C3CCOCC3)c2O[C@@H]1CN(C)Cc1ccncc1 , the logged activation turned out to be 0.913
